# Test system: HL-60
# assayProcedure: NCI tumour cell line growth inhibition, 48 h
Activity calls are given as the source filed them. Rule as the data show it: active = GI50 up to about 1.1 µM and inactive = higher.
Allowed answers: active, inactive

Illustrative cases are given below, each with its answer.
| compound | system | discreteLabel |
| --- | --- | --- |
| COc1cc2oc(-c3ccc(O)cc3)cc(=O)c2c(O)c1C1OC(CO)C(O)C(O)C1O (stereo not given) | HL-60 | inactive |
| C(/C=C/N1CCCC1)=C\c1nc(N2CCCC2)c2ccccc2n1 | HL-60 | inactive |
| CN(C)CCCNC(=O)CCNC(=O)c1cc(NC(=O)c2cc(NC(=O)c3cc(NC(=O)c4nc(NC(=O)CCCNC(=O)c5cc(NC(=O)c6cc(NC(=O)c7cc(NC(=O)c8nccn8C)cn7C)cn6C)cn5C)cn4C)cn3C)cn2C)cn1C | HL-60 | inactive |

Query: Which result was noted for this compound in the test: Cc1cc2c(Br)cc(Br)c(O)c2nc1C(=O)c1ccccc1
Result: inactive

Query: Call for entry O=C(Cc1ccccc1)NN1C(=O)/C(=C\c2ccc(O)cc2)S/C1=N\c1ccccc1 :
Result: inactive

Query: For Cc1cc(=O)oc2c(CNC(CC(C)C)C(=O)O)c(O)ccc12 (stereo not given) , which call appears in the assay record?
Result: inactive

Query: Recorded test call requested for CCC1(OC(=O)CNC)C(=O)OCc2c1cc1n(c2=O)Cc2cc3ccccc3nc2-1 (stereo not given)
Result: active

Query: Field: outcome | Entry: Ic1cccc(/C=C/CN2CCN(CCOC(c3ccccc3)c3ccccc3)CC2)c1
Result: inactive

Query: Can you look up the reported call for COc1cc(COC(=O)NC(Cc2cccs2)C(=O)O)c([N+](=O)[O-])cc1OC (stereo not given) for me?
Result: inactive

Query: Field: outcome | Entry: Brc1ccc(-c2ccc(-c3ccc(Br)s3)s2)s1
Result: inactive
